Assay: Volume of distribution at steady state in rat at 5 mg/kg, iv measured after 24 hrs by HPLC-MS analysis
Type: ADME, organism-based
Settings: in vivo, read-out: Vdss
Parameter: Vd. Scope: all listed entries.
// units = L/kg; emit number, no label

NS(=O)(=O)c1c(C[C@H]2CC[C@H](N)CC2)ccc(-c2ccc(C3CNC3)cc2)c1-c1nn[nH]n1 = 0.39

Could you now look at the following compound, please?
Recorded Vd (compound "NS(=O)(=O)c1c(C(F)(F)F)ccc(-c2ccc(C3CCN(CC4CNC4)CC3)cc2)c1-c1nnn[nH]1" ): 0.73

* * *

Experiment: AUC in rat at 1 mg/kg, iv measured after 24 hrs by HPLC-MS analysis
Type: ADME, organism-based
Conditions: in vivo
Measured AUC at 24 h accompanies every entry in the list below.
Give the number; µM·h is assumed, so skip it.

NS(=O)(=O)c1c(C(F)(F)F)ccc([C@H]2CC[C@H](N)CC2)c1-c1nnn[nH]1 = 5
NS(=O)(=O)c1c(CC2CCNCC2)ccc(-c2ccc(C3CCNCC3)cc2)c1-c1nn[nH]n1 = 5.5
Nc1nc2cccc(-c3ccc(C(F)(F)F)c(S(N)(=O)=O)c3-c3nnn[nH]3)c2[nH]1 = 4.1

Kindly consider the entry below.
Sure, the documented AUC at 24 h for "Nc1ccc(-c2ccc(CC3CCNCC3)c(S(N)(=O)=O)c2-c2nn[nH]n2)cn1" is 11.7

* * *

Tested on: Klebsiella pneumoniae
Assay: Potentiation of imipenem induced antibacterial activity against Klebsiella pneumoniae IHMA599644 harbouring VIM-1 incubated for 18 to 22 hrs imipenem by spectrophotometer based analysis
Type: functional
Details: time 18-22 hrs
propertyMeasured: MITC95 (µM)
Reply numerically in µM, unit not repeated.

Nc1nc2ccc(-c3ccc(C(F)(F)F)c(S(N)(=O)=O)c3-c3nn[nH]n3)cc2s1 = 12.5
Nc1ccc(-c2ccc(C(F)(F)F)c(S(N)(=O)=O)c2-c2nn[nH]n2)cn1 = 4.8
Cc1ccc(-c2ccc(C3CCNCC3)cc2)c(-c2nn[nH]n2)c1S(N)(=O)=O = 25

// recorded MITC95 for "NS(=O)(=O)c1c(C(F)(F)F)ccc(-c2ccc(NS(=O)(=O)C3CC3)cc2)c1-c1nn[nH]n1" : 12.5

Consider "N=C(N)N[C@H]1CC[C@H](c2ccc(C(F)(F)F)c(S(N)(=O)=O)c2-c2nn[nH]n2)CC1" . Its measured MITC95 is 1.2

response.value for "Nc1nc2c(-c3ccc(CC4CCNCC4)c(S(N)(=O)=O)c3-c3nn[nH]n3)cccc2s1" (field: MITC95) = 1.6

get_value(item= "Nc1nc2c(-c3ccc(C(F)(F)F)c(S(N)(=O)=O)c3-c3nn[nH]n3)cccc2s1" , readout=MITC95) returns 3.1

Notebook: "Nc1nc2cccc(-c3ccc(C(F)(F)F)c(S(N)(=O)=O)c3-c3nn[nH]n3)c2s1" , MITC95 read as 6.3

GET /value?item= "Nc1ccc2ccc(-c3ccc(C(F)(F)F)c(S(N)(=O)=O)c3-c3nn[nH]n3)cc2n1" &field=MITC95 returns 3.1

For this molecule ( "NCCCc1ccc(-c2cccc3sc(N)nc23)c(-c2nn[nH]n2)c1S(N)(=O)=O" ), measured MITC95 is 1.6

Measured MITC95, "NS(=O)(=O)c1c(C(F)(F)F)ccc([C@H]2CC[C@H](N)CC2)c1-c1nnn[nH]1" : 0.8

Record "Nc1ccc(-c2ccc(CC3CCNCC3)c(S(N)(=O)=O)c2-c2nn[nH]n2)cn1" . Reported MITC95: 4.2

Form field MITC95, entry "Cc1ccc(-c2cccc(S(N)(=O)=O)c2-c2nnn[nH]2)cc1" : 127

Lookup result for "NC1(c2ccc(-c3ccc(C(F)(F)F)c(S(N)(=O)=O)c3-c3nn[nH]n3)cc2)CCNCC1" ; measured MITC95: 0.9

Record summary for "NS(=O)(=O)c1c(C(F)(F)F)ccc(-c2ccc(C3CCNCC3)cc2)c1-c1nn[nH]n1" : reported MITC95 = 1.9

Input NC1CCC(N2CCC(c3ccc(-c4ccc(C(F)(F)F)c(S(N)(=O)=O)c4-c4nn[nH]n4)cc3)CC2)CC1 (stereo not drawn) . Output MITC95: 50

For "NS(=O)(=O)c1c(C(F)(F)F)ccc(-c2ccc(C3CCN(CC4CNC4)CC3)cc2)c1-c1nnn[nH]1" the molecule record lists MITC95 as 7.8

Measured MITC95 of "Nc1nc2cccc(-c3ccc(C(F)(F)F)c(S(N)(=O)=O)c3-c3nnn[nH]3)c2[nH]1" : 1.6

* * *

Target: Cytochrome P450 3A4 (Homo sapiens, UniProt P08684)
Sequence (P08684 whole entry): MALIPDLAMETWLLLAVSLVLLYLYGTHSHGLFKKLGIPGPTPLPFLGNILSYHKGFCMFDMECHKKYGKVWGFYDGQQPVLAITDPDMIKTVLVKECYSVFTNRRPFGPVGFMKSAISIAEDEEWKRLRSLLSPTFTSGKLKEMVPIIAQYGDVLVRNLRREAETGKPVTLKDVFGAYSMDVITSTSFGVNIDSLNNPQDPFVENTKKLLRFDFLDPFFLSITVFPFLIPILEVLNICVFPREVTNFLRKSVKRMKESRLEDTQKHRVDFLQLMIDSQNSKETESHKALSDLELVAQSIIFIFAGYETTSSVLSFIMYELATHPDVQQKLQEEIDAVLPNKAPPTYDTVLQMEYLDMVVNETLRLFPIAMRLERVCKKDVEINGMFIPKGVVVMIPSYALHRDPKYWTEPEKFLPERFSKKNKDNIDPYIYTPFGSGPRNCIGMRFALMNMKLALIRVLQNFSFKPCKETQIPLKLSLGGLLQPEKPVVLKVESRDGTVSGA
Assay: Inhibition of CYP3A4 (unknown origin)
Type: ADME
pIC50: −log10 of the molar value.
Below, each entry is listed alongside its reported pIC50.

Below are worked cases with known answers.
NS(=O)(=O)c1c(C(F)(F)F)ccc(-c2ccc(C3CCN(CC4CNC4)CC3)cc2)c1-c1nnn[nH]1 = < 4.30
NS(=O)(=O)c1c(CC2CCNCC2)ccc(-c2ccc(C3CCNCC3)cc2)c1-c1nn[nH]n1 = < 4.30

# input for lookup
Reported pIC50 of "Nc1nc2cccc(-c3ccc(C(F)(F)F)c(S(N)(=O)=O)c3-c3nnn[nH]3)c2[nH]1" : < 4.30

* * *

Experiment: Inhibition of GST tagged VIM-1 (unknown origin) expressed in Escherichia coli BL21 Star (DE3) competent cells using CCF2-FA as substrate incubated for 2 hrs by fluorescence based analysis
pIC50: −log10 of the molar value.
Decide using pIC50: a value greater than or equal to 9 is y, a smaller one is n.

Exercise: Record "Nc1ccc2ccc(-c3ccc(C(F)(F)F)c(S(N)(=O)=O)c3-c3nn[nH]n3)cc2n1" ; criterion: pIC50 no lower than 9. Met?
Key: y

Exercise: Textbook exercise: given the entry "Nc1nc2cccc(-c3ccc(C(F)(F)F)c(S(N)(=O)=O)c3-c3nn[nH]n3)c2s1" , state whether its pIC50 is greater than or equal to 9.
Key: y

Exercise: Textbook exercise: given the entry "NS(=O)(=O)c1c(C(F)(F)F)ccc(-c2ccc(C3CCNCC3)cc2)c1-c1nn[nH]n1" , state whether its pIC50 is greater than or equal to 9.
Key: y

* * *

Listed here are compounds together with their documented IC50.
Target: Cytochrome P450 2C9 (Homo sapiens)
Sequence (P11712 whole entry): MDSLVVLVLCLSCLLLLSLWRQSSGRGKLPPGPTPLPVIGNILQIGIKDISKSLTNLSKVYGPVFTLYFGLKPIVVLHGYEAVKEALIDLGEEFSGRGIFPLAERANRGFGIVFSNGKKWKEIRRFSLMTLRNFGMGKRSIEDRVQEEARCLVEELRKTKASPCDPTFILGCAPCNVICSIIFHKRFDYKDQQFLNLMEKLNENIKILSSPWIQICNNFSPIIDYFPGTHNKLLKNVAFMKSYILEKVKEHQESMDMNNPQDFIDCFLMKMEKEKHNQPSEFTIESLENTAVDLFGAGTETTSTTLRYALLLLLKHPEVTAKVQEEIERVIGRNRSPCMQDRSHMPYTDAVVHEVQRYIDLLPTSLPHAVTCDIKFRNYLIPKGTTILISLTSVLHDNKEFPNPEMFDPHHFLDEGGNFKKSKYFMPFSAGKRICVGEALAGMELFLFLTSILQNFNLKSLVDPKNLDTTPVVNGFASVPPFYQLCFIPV
Assay: Inhibition of CYP2C9 (unknown origin)
Format: ADME

NS(=O)(=O)c1c(CC2CCNCC2)ccc(-c2ccc(C3CCNCC3)cc2)c1-c1nn[nH]n1 = > 50 µM

The recorded IC50 for entry "Nc1nc2cccc(-c3ccc(C(F)(F)F)c(S(N)(=O)=O)c3-c3nnn[nH]3)c2[nH]1" equals > 50 µM

Input "NS(=O)(=O)c1c(C(F)(F)F)ccc(-c2ccc(C3CCN(CC4CNC4)CC3)cc2)c1-c1nnn[nH]1" . Output IC50: > 50 µM

* * *

IC50 listing for selected molecules.
Target: UniProt:P10635
Sequence (P10635 whole entry): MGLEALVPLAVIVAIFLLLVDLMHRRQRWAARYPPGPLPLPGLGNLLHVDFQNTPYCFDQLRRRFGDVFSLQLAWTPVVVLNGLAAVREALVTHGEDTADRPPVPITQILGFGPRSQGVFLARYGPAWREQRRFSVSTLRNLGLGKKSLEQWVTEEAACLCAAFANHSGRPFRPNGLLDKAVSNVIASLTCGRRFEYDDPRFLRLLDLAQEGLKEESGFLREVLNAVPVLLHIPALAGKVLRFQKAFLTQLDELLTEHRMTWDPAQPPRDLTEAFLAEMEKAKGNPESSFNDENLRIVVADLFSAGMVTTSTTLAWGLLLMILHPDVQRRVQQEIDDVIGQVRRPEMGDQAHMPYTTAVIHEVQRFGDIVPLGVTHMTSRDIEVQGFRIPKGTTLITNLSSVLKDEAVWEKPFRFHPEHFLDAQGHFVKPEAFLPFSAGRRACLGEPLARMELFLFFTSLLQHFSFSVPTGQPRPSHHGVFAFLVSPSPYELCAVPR

Worked cases, IC50 given:
Nc1nc2cccc(-c3ccc(C(F)(F)F)c(S(N)(=O)=O)c3-c3nnn[nH]3)c2[nH]1 = > 50 µM
NS(=O)(=O)c1c(CC2CCNCC2)ccc(-c2ccc(C3CCNCC3)cc2)c1-c1nn[nH]n1 = > 50 µM

Kindly note the recorded IC50 for "NS(=O)(=O)c1c(C(F)(F)F)ccc(-c2ccc(C3CCN(CC4CNC4)CC3)cc2)c1-c1nnn[nH]1" , which is > 50 µM

* * *

Test: MRT in Beagle dog at 1 mg/kg, iv measured after 24 hrs by HPLC-MS analysis
Type: ADME, organism-based, Canis lupus familiaris
Conditions: in vivo
Collected MRT values appear next to each entry.
I'd appreciate it if you wrote the number followed by its unit.

Please review the following examples before continuing.
Nc1nc2cccc(-c3ccc(C(F)(F)F)c(S(N)(=O)=O)c3-c3nnn[nH]3)c2[nH]1 = 1.72 h
NS(=O)(=O)c1c(C(F)(F)F)ccc([C@H]2CC[C@H](N)CC2)c1-c1nnn[nH]1 = 2.03 h

// next item, MRT requested
MRT recorded for this molecule, "NS(=O)(=O)c1c(CC2CCNCC2)ccc(-c2ccc(C3CCNCC3)cc2)c1-c1nn[nH]n1" , is 3.2 h

* * *

Each entry below lists one item and its recorded AUC at 24 h value.
Test: AUC in rat at 5 mg/kg, iv measured after 24 hrs by HPLC-MS analysis
Type: ADME, organism-based
Conditions: in vivo
A number alone suffices; assume µM·h.

NS(=O)(=O)c1c(C[C@H]2CC[C@H](N)CC2)ccc(-c2ccc(C3CNC3)cc2)c1-c1nn[nH]n1 = 83.7

Next:
Record "NS(=O)(=O)c1c(C(F)(F)F)ccc(-c2ccc(C3CCN(CC4CNC4)CC3)cc2)c1-c1nnn[nH]1" , field AUC at 24 h: 9.6

* * *

Assay: Cmax in Wistar rat at 5 mg/kg, iv administered as bolus dose measured after 24 hrs by HPLC-MS analysis
Type: ADME, organism-based
Settings: in vivo
propertyMeasured: Cmax (µM)
Provide the reading as a plain figure in µM.

The compound identified as "NS(=O)(=O)c1c(CC2CNC2)ccc(-c2ccc(C3CCNCC3)cc2)c1-c1nn[nH]n1" registered its Cmax at 45
